- TARGET_OR_SYSTEM: T1, hPRLR.mmh (soluble monomeric human PRLR) (Homo sapiens, UniProt P16471)
- T1 construct: soluble monomeric (hPRLR.mmh); mmh (myc-myc-hexahistidine)
- T1 sequence (P16471 with tags, fused parts or gaps): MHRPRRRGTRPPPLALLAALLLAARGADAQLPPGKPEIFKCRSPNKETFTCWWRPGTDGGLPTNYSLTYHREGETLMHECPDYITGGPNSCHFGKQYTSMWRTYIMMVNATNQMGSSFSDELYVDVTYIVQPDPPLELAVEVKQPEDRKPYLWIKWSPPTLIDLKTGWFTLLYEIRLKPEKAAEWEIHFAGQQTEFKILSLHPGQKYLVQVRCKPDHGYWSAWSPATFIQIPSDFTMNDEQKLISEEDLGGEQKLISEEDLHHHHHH
- PROTOCOL_DETAILS: Surface plasmon resonance (Biacore T200), mAb-capture format
- Type: binding
- RUN_PARAMETERS: 37° C., antibody-capture format, analyte hPRLR.mmh
Parameter: T½. Scope: all listed entries.
Unit min implied. Number only.

>>> data_value("H1H6782P: anti-PRLR antibody, human IgG1 Fc; HCVR/LCVR SEQ ID NOs 66/74; non-blocking (antibody, V domains shown, human IgG1 Fc) VH: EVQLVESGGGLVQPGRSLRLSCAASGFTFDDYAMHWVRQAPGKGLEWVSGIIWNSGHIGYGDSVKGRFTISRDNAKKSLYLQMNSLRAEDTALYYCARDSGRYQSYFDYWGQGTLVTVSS VL: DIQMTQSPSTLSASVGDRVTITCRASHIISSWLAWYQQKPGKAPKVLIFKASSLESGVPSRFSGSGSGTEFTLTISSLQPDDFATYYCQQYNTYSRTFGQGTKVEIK")
16
>>> data_value("H1H6801P: anti-PRLR antibody, human IgG1 Fc; HCVR/LCVR SEQ ID NOs 210/218 (antibody, V domains shown, human IgG1 Fc) VH: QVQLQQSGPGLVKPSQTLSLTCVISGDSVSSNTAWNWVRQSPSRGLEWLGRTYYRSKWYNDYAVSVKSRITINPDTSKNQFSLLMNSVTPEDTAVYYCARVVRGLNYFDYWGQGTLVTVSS VL: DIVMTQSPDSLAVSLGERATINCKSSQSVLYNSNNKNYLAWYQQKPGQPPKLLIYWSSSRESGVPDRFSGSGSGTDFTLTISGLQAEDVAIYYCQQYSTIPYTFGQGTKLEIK")
3
>>> data_value("H1H6781P: anti-PRLR antibody, human IgG1 Fc; HCVR/LCVR SEQ ID NOs 50/58 (antibody, V domains shown, human IgG1 Fc) VH: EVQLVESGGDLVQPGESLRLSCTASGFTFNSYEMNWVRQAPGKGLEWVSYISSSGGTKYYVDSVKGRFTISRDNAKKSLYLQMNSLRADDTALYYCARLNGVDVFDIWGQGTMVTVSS VL: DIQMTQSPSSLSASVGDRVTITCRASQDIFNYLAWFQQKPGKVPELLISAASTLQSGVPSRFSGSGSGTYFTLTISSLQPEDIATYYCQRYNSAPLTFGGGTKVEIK")
37
>>> data_value("H1H6960N: human IgG1 Fc form of H2M6960N; anti-PRLR; HCVR/LCVR SEQ ID NOs 322/330 (antibody, V domains shown, human IgG1 Fc) VH: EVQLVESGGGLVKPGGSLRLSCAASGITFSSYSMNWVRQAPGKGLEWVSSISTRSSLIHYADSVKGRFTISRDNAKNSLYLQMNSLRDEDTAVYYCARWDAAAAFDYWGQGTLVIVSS VL: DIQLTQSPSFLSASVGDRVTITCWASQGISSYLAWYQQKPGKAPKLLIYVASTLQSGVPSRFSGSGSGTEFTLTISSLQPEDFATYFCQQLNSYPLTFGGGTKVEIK")
5.8
>>> data_value("H1H6804P: anti-PRLR antibody, human IgG1 Fc; HCVR/LCVR SEQ ID NOs 242/250 (antibody, V domains shown, human IgG1 Fc) VH: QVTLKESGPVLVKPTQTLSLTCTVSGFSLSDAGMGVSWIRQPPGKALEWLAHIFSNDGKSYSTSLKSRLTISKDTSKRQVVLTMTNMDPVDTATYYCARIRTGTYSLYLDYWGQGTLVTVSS VL: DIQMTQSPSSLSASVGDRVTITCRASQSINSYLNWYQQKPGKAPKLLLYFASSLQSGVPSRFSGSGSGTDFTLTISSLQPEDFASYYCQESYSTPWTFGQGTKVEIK")
3

Read the entry H1H6958N2: human IgG1 Fc form of H2M6958N2; anti-PRLR, receptor blocking; HCVR/LCVR SEQ ID NOs 290/298 (antibody, V domains shown, human IgG1 Fc) VH: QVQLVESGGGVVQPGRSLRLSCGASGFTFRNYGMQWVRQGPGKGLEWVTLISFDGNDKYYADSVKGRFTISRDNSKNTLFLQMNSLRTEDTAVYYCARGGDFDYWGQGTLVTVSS VL: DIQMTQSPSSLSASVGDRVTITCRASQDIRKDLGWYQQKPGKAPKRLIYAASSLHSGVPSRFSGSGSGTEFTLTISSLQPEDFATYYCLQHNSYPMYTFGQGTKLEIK and write its reported T½. 8.8

Report T½, nothing else, for this molecule: H1H6800P: anti-PRLR antibody, human IgG1 Fc; HCVR/LCVR SEQ ID NOs 194/202 (antibody, V domains shown, human IgG1 Fc) VH: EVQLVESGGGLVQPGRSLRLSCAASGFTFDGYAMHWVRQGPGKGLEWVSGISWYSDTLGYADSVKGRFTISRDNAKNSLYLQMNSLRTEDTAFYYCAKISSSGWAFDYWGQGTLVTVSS VL: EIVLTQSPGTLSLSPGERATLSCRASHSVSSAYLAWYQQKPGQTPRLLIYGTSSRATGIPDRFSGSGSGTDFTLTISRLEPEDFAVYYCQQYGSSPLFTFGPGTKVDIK 10

Note T½ for the molecule shown: H1H6966N: human IgG1 Fc form of H2M6966N; anti-PRLR; HCVR/LCVR SEQ ID NOs 338/346 (antibody, V domains shown, human IgG1 Fc) VH: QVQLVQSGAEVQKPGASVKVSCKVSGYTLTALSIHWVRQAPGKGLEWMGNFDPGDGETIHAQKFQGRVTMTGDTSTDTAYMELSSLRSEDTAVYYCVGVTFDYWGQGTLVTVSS VL: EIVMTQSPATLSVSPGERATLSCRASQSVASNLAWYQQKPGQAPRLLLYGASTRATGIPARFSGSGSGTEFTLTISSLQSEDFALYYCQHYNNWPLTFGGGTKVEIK 12.0

All values here come from patent US9688764B2.
